# Tested on: breast cancer cell MDA-MB-231
# protocol-description: cells
# conditions: 72 h
# Protocol: 6 types of cancer cell lines of Lung adenocarcinoma cell A549, colorectal cancer cell HCT116, breast cancer cell MDA-MB-231, liver adenocarcinoma cell SK-HEP-1, stomach adenocarcinoma cell SNU638, and chronic myeloid leukemia cell K562,and a normal cell line of pulmonary fibroblast MRC-5 were purchased from Korean Cell Line Bank (Seoul, Korea). With Lenziamide compound prepared as in Example 1 added, the cell lines were cultured for about 72 hours. […]
pIC50: −log10 of the molar value. Numbered stars: 1 amine (or outer) side, 2 acyl side, 3 side chain; on linkers, the order of the positions; unused ones are H or OH. Square brackets hold non-standard residues; d marks the D form. Peptide text beside a SMILES is read from it. NMeF = CN[CH](Cc1ccccc1)C(=O)O; X1 = O=C(C1CCCNN1[*:1])[*:2]; NMeV = CN[CH](C(=O)O)C(C)C; NMeS = CN[CH](CO)C(=O)O; NMeA = CN[CH](C)C(=O)O; βAla = NCCC(=O)O
outcome-measure: pIC50

>  <molecule>
CCC(C)C1NC(=O)C(Cc2ccccc2)N(C)C(=O)C2CCCNN2C(=O)C(CO)N(C)C(=O)C(CC(C)C)NC(=O)C(Cc2ccccc2)N(C)C(=O)C(C)NC(=O)C(C(C)C)N(C)C(=O)CCNC(=O)C(C)N(C)C1=O (stereo not shown) [Lenziamide A] (cyclo([X1][NMeF]I[NMeA][βAla][NMeV]A[NMeF]L[NMeS]); configuration not given here)

>  <tested-target>
breast cancer cell MDA-MB-231

>  <readout-number>
6.21

$$$$

A. CCC(C)C1NC(=O)C(Cc2c[nH]c3ccccc23)N(C)C(=O)C2CCCNN2C(=O)C(CO)N(C)C(=O)C(CC(C)C)NC(C)C(Cc2ccccc2)N(C)C(=O)C(C)NC(=O)C(C(C)C)N(C)C(=O)CCNC(=O)C(C)N(C)C1=O (stereo not shown) [Lenziamide B]
B. CC(C)CC1NC(C)C(Cc2ccccc2)N(C)C(=O)C(C)NC(=O)C(C(C)C)N(C)C(=O)CCNC(=O)C(C)N(C)C(=O)C(C(C)C)NC(=O)C(Cc2ccccc2)N(C)C(=O)C2CCCNN2C(=O)C(CO)N(C)C1=O (stereo not shown) [Lenziamide C]
C. CC(C)CC1NC(C)C(Cc2ccccc2)N(C)C(=O)C(C)NC(=O)C(C(C)C)N(C)C(=O)CCNC(=O)C(C)NC(=O)C(C(C)C)NC(=O)C(Cc2ccccc2)N(C)C(=O)C2CCCNN2C(=O)C(CO)N(C)C1=O (stereo not shown) [Lenziamide E]
Q: Order field: pIC50 | Direction: descending (largest first) Give the order by naming the labels one after another as requested.
Result: A, B, C
